I'd be grateful if you could share measured melting point for these entries.

Here are 6 compounds together with their reported answers.
COC(=O)C[C@]1(C(=O)OC)CC(c2ccc(OC)c(OC3CCCC3)c2)=NO1 ... 92 to 93 °C
BrCc1ccccc1CCc1ccc(Br)cc1 ... 63 to 75 °C
O=C(O)c1ccc2c(=O)n(CCCCN3CC=C(c4ccccc4)CC3)c(=O)[nH]c2c1 ... 296 to 305 °C
OC(CCNCc1ccccc1)(COc1ccc(Cl)cc1)c1ccccc1 (stereo not given) ... 70 to 71 °C
CC(C)(C)OC(=O)N1CC(CO)c2c1cc([N+](=O)[O-])c1ccccc21 (stereo not given) ... 176 °C
Fc1cc(F)cc(Cn2cnnc2S)c1 ... 129 to 130 °C

Please report melting point for every entry that follows.
1. CCCC[C@H](NC(=O)[C@@H](NC(=O)OCc1ccccc1)c1ccccc1)C(=O)CSCc1ccco1
2. O=C(O)c1cccc2c1Cc1c-2[nH]c2ccc(I)cc12
3. COC(=O)c1oc2cc3ccccc3cc2c1OC
4. CCCCOc1cc(-c2cc3ccccc3[nH]2)ccc1OCC

["144 to 146 °C", "251 °C", "121 to 124 °C", "139 °C"]

---

I'd be grateful if you could share measured melting point for these entries.

Here are 4 compounds together with their reported answers.
CC1(C)Nc2cc(Cl)ccc2NC1=O ... 166 to 170 °C
COC(=O)c1cc(Cl)c2nc(C)cn2c1N ... 188 to 191 °C
O=Cc1ccc(-c2ccc(-c3ccc(C=O)o3)cn2)cc1 ... 204 to 206 °C
CCNc1ccc(C(=O)Nc2ccc(OC)cc2)c(NC(=O)c2ccc(C(C)(C)C)cc2)c1 ... 205 to 208 °C

Please report melting point for every entry that follows.
1. COc1cc(OC)nc(NC(=O)NS(=O)(=O)c2ccccc2-c2nccn2C)n1
2. CCOC(=O)C1Nc2ccccc2S(=O)(=O)n2cccc21 (stereo not given)
3. CC1(C)CC(=O)c2c(C3CC3)sc(-c3nccs3)c2C1
4. CC(=O)NNc1c(C)cnc2c(NC(=O)c3ccccc3C(F)(F)F)cccc12

1. 182 to 183 °C
2. 131 to 134 °C
3. 103 to 105 °C
4. 209 to 211 °C

Please report melting point for every entry that follows.
1. Cc1ccccc1Sc1ccc2c(c1)CC[C@H]1NC(=O)CC[C@]21C
2. Cc1cc(SCc2sc(-c3ccc(F)c(F)c3)nc2C)ccc1OCC(=O)O
3. Nc1nc(N)c2c(CCCc3ccc(C(=O)N[C@@H](CCC(=O)O)C(=O)O)cc3)cnc-2[nH]1
4. CN1CC(CN2C(=O)C3(COc4cc5c(cc43)OCO5)c3ccccc32)OC1=O (stereo not given)
5. Cn1ccnc1Sc1ccc(Nc2c(C#N)cnc3cc(N4CCC(N5CCCC5)CC4)c([N+](=O)[O-])cc23)cc1Cl
6. CCCSc1nc(Br)c(Br)n1Cc1cc2c(cc1Cl)OCO2

1. 192 °C
2. 119 °C
3. > 250 °C
4. 98 to 102 °C
5. 220 to 230 °C
6. 116 °C

Please report melting point for every entry that follows.
1. Cc1cc(-c2ccc(S(N)(=O)=O)cc2)n(-c2ccc(Cl)cc2)c1
2. C=CCc1c(O)ccc2c1CCC(=O)N2CC=C(C)C
3. CC(Oc1ccc(Oc2ccc(C(F)(F)F)cn2)cc1)C(=O)OCCOCc1ccccc1 (stereo not given)

1: 171 to 173 °C; 2: 182 to 184 °C; 3: 44 to 47 °C

Please report melting point for every entry that follows.
1. O=c1[nH]ccc2c1ccn2-c1ccc(C(F)(F)F)cc1Cl
2. CC(=O)c1ccc(OCCCN2CCC(c3noc4cc(F)ccc34)CC2)cc1
3. CNc1nc(-c2cccc([N+](=O)[O-])c2)c2cc(OC)c(OC)cc2n1

233 to 235 °C
111 to 112 °C
218 to 220 °C

---

metric name: melting point

Cc1cc(-c2nnc3c4ccccc4c(OCc4cnc5ccccc5n4)nn23)no1 ... 243 to 245 °C
O=C(OCc1ccccc1)N1CCc2c(sc3nc(CN4C(=O)CCC4=O)c(Cl)c(-c4ccc(C(F)(F)F)cc4)c23)C1 ... 201 to 202 °C
O=C(c1ccccc1)n1c2cc(O)c(O)cc2c2cc(O)c(O)cc21 ... 287 to 292 °C
Cc1cc2c(s1)CCCc1cc(=O)n(-c3ccc(Cl)cc3)nc1-2 ... 150 to 151 °C
O=C(NCC(=O)N(c1ccccc1)c1ccccc1)Nc1cccc([N+](=O)[O-])c1 ... 180 °C
CCC(CC)Nc1cc(C)nc(Oc2c(C)cc(C)cc2C)c1CN ... 117 to 119 °C
CCOC(=O)C1=Cc2cc(-c3ccc(C)cc3)ccc2SC1 ... 87 °C
Cc1cc(N(C)Cc2oc(-c3ccc(C(F)(F)F)cc3)nc2C)ccc1OCC(=O)O ... 156 to 157 °C

Please report melting point for every entry that follows.
1. Cc1cc(C2CCC2)n2nc(S(=O)(=O)Nc3c(Cl)cccc3Cl)nc2n1
2. CCOC(=O)c1c[nH]c(=S)n1C1CCc2c(F)cc(F)cc2C1 (configuration not stated)
3. CN1CCC(OC2c3ccccc3CCn3c2nc(I)c3C#N)CC1 (configuration not stated)
4. Nc1ccc2ccc(Oc3ccc(F)cc3)nc2n1
5. CC(C)Nc1nc(Br)cnc1OCC(O)CBr (configuration not stated)
6. Cc1c(C)n2nnnc2c2nc(C)n(CCNS(C)(=O)=O)c12

260 °C
159 to 161 °C
195 °C
210 °C
108 to 109 °C
> 250 °C

Please report melting point for every entry that follows.
1. Nc1ccc(-n2c(-c3ccccc3)cc3c2CCCC3)cc1C(=O)O
2. CSC1NC(=O)N(C)C(=O)N1N=C(C)C (configuration not stated)
3. CC(c1ccc(F)cc1)N1CC(C)(C)C(Oc2ccc(C#N)c(C(F)(F)F)c2)C1=O (configuration not stated)

206 °C
130 to 132 °C
82 to 83 °C

Please report melting point for every entry that follows.
1. CCCOc1ccc(F)cc1C(=O)O
2. O=c1nc(-c2cccc(S(=O)(=O)CCCc3ccccc3)n2)sc2ccccc12
3. COC(=O)C(C)(C)OCc1cc2nc(C(F)(F)F)ccc2n1S(=O)(=O)c1ccc2ncsc2c1
4. CN(C)C(=O)Nc1ccc(Oc2cccc(C(F)(F)F)c2)c(Cl)c1
5. Cn1c(C(=O)NN)nc2ccccc21
6. Cc1nc(-c2ccccc2)nc(Cl)c1C

["76 to 78 °C", "150 to 151 °C", "124 to 127 °C", "166 °C", "156 to 159 °C", "120 to 122 °C"]

Please report melting point for every entry that follows.
1. Nc1cc(O)ccc1Oc1ccccc1
2. CCCc1c(OCCCOc2ccc3c(c2)CCC(CC(=O)OC)C3=O)ccc(C(C)=O)c1O (configuration not stated)
3. CC(C)OC1=CC=CN2C1=NC(=O)C2(Cc1ccccc1)Cc1ccccc1
4. CCN(CC)c1nc2cc(C)nn2c2c1cnc1c2cnn1CC
5. CCOC(=O)Nc1ccc(N2N=C(C)C(=CNc3ccccc3OC)C2=O)cc1

["156 to 157 °C", "96 to 98 °C", "247 to 248 °C", "106 to 108 °C", "212 °C"]

Please report melting point for every entry that follows.
1. COc1ccc(/C(=C/C=C/C(=O)Oc2ccc([N+](=O)[O-])cc2)C2CCCCC2)cc1
2. O=C(Nc1ccc(Cl)nc1)c1ccc(Cl)o1
3. CN(C)C(=O)c1cc(-c2ccccc2)c(=O)n2c1-c1cc(Cl)ccc1CN2
4. O=C1CCOc2cc(S)ccc21
5. CC12CCC(C1)C(C)(C)C2(S)CC#N (configuration not stated)
6. CCC(O)(c1cncc(OCc2ccc3ccccc3c2)c1)c1nccs1 (configuration not stated)
7. CNC(=O)N(OC)C(=O)Nc1ccccc1F
8. CC(C)c1nc(N(C)S(C)(=O)=O)nc(-c2ccc(F)cc2)c1Br

1: 117 to 119 °C; 2: 143 to 144 °C; 3: 250 to 252 °C; 4: 144 to 145 °C; 5: 170 to 171 °C; 6: 48 to 50 °C; 7: 144 to 147 °C; 8: 122 to 125 °C

Please report melting point for every entry that follows.
1. Cc1c(F)c(N2CCC(N)C2)c(C)c2c1c(=O)c(C(=O)O)cn2C1CC1 (configuration not stated)
2. NC(=O)c1ccnc(OCc2nc3cc(Cl)ccc3s2)c1

96 to 98 °C
220 to 222 °C

Please report melting point for every entry that follows.
1. CCOC(=O)C1=NOC(c2ccccc2)(c2ccccc2)C1
2. O=C1CC(c2c(-c3ccc[nH]3)[nH]c3ccc(Cl)cc23)C(=O)N1 (configuration not stated)
3. CC(CCl)CCCC(C)C1CCC2C3=CC=C4C(C)(C)C(O[Si](C)(C)C(C)(C)C)CCC4(C)C3CCC21C (configuration not stated)
4. CCOC(=O)Nc1nc(C(=NOC)C(=O)OCC)ns1

1. 78 to 81 °C
2. 138 to 144 °C
3. 114 to 116 °C
4. 108 to 110 °C
